target: T1, cynomolgus monkey IL-33 expressed with a C-terminal hexahistidine tag (cynomolgus monkey)
T1 construct: also called MfIL-33-6His; Mf-IL-33-6His
T1 chain: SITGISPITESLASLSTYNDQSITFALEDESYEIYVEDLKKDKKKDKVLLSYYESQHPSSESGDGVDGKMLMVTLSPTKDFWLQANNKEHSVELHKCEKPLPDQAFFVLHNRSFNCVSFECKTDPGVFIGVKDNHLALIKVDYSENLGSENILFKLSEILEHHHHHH
assay procedure: BLI; mAb-1 on captured MfIL-33-6His
measured attribute: mAb-1 Binding (nm)
Give the value in nm but do not write nm after it.

// query GET /values?readout=mAb-1 Binding (nm)&item= H4H9667P (antibody, human IgG4, V domains shown, Human IgG4 Fc (H4H)) VH: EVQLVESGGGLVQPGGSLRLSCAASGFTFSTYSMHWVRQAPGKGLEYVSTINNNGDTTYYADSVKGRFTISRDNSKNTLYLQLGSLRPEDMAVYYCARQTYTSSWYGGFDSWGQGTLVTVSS VL: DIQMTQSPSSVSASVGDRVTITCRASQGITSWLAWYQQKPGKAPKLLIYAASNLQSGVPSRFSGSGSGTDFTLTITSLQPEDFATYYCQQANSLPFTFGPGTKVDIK
// result 0.5

// query Entry H4H9665P (antibody, human IgG4, V domains shown, Human IgG4 Fc (H4H)) VH: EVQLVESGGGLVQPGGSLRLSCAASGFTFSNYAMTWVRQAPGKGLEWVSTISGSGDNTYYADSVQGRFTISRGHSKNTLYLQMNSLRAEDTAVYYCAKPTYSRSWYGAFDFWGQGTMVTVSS VL: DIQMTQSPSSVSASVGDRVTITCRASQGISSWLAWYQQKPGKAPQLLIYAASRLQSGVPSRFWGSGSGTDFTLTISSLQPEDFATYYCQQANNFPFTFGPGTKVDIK please
// result 0.63

// query Entry H4H9675P (antibody, human IgG4, V domains shown, Human IgG4 Fc (H4H)) VH: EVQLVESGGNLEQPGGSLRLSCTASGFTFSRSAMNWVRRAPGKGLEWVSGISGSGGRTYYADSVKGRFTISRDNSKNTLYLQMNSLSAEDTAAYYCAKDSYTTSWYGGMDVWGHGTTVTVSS VL: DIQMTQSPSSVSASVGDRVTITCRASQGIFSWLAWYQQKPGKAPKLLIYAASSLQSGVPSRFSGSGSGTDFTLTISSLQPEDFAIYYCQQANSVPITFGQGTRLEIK please
// result 0.52

// query Entry H4H9640P (antibody, human IgG4, V domains shown, Human IgG4 Fc (H4H)) VH: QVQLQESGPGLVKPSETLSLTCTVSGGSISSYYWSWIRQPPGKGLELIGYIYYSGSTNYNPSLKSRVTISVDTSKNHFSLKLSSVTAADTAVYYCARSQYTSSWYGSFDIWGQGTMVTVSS VL: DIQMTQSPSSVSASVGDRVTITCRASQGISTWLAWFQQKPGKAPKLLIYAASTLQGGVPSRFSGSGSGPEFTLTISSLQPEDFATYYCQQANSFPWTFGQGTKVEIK please
// result 0.61

// query Entry H4H9659P (antibody, human IgG4, V domains shown, Human IgG4 Fc (H4H)) VH: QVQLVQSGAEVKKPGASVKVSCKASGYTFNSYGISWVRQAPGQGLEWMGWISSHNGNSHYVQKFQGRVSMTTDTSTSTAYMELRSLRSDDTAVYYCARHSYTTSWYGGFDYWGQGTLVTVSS VL: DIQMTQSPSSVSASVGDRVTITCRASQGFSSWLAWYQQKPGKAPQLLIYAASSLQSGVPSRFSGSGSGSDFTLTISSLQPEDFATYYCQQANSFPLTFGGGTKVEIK please
// result 0.56
